system: IL-1b; assay: Human Monocyte IL-1b Assay; format: cell-based; conditions: Monocyte; fresh human whole blood; compound 0.5 h, 100 ng/mL LPS 3.5 h at 37° C., 5 mM ATP 45 min; IL-1b in supernatant by ELISA
Attribute: IC50

Solved cases below.
Cc1cc(C(O)C2CCCCN(C)C2)nnc1-c1ccc(C(F)(F)F)cc1O (centres unmarked); < 0.5 µM
Cc1cc(C(O)C23CCCN(CC2)C3)nnc1-c1ccc(C(F)(F)F)cc1O (centres unmarked); 0.5 to 3 µM
Cc1cc([C@H](O)[C@@H]2CC[C@H]3CCC(=O)N3C2)nnc1-c1ccc(C(F)(F)F)cc1O; 0.5 to 3 µM
Cc1cc(C(O)C23CCC(CC2)N(C)C3)nnc1-c1ccc(C(F)(F)F)cc1O (centres unmarked); 0.5 to 3 µM

Now look at this one.
Input line: Endpoint output: IC50 of Cc1cc(C(O)C2CC3CC2N(C)C3)nnc1-c1ccc(C(F)(F)F)cc1O (centres unmarked) . Value?
Output line: < 0.5 µM
